system: RAW264.7; assay: cells; details: Mus musculus
Description: Antiinflammatory activity against mouse RAW264.7 cells assessed as inhibition of LPS-induced TNF-alpha secretion pretreated with LPS for 3 hrs followed by compound addition and measured after 24 hrs by ELISA
pIC50: −log10 of the molar value.

{"STRUCTURE NOTATION": "COc1cc(/C=C/c2ccc(OCC(=O)NCCCO)cc2)c(/C=N/OCc2ccc(F)cc2)c(OC)c1", "MEASURED ON": "RAW264.7", "pIC50": 5.04}

###

system: RAW264.7; experiment: cells; conditions: Mus musculus
Description: Antiinflammatory activity against mouse RAW264.7 cells assessed as inhibition of LPS-induced IIL-6 secretion pretreated with LPS for 3 hrs followed by compound addition and measured after 24 hrs by ELISA

{"STRUCTURE NOTATION": "COc1cc(/C=C/c2ccc(OCC(=O)NCCCO)cc2)c(/C=N/OCc2ccc(F)cc2)c(OC)c1", "IC50 / µM": 6.76}
